- Tested on: RXF 393 renal
- Assay text: NCI tumour cell line growth inhibition, 48 h
Readout: TGI (µM)
Use µM as the unit, but write only the number.

# example entries with known answers
Smiles str	Output unit	TGI
CCOC(=O)Cc1nnc2c(-c3ccccc3)nc3ccccc3n12	µM	36.4
COc1cc2c(cc1OCCCOc1cc(-c3ccc(F)cc3)nc(C)n1)N=C[C@@H]1CCCN1C2=O	µM	54.3
Cc1ccc(CC(=O)Nc2ccc(NC(=O)/C=C/NC(=O)/C=C/c3ccc(-c4ccccc4)cc3)cc2C(=O)c2ccccc2)cc1	µM	3.52

Now consider the entry below.
TGI measured on `C=C1C(=O)O[C@H]2[C@H]1CC/C(COC(=O)CCCCC(=O)OC/C1=C/CC[C@@]3(C)O[C@H]3[C@H]3OC(=O)C(=C)[C@@H]3CC1)=C\CC[C@@]1(C)O[C@@H]21` = 2.31

Values were extracted from PubChem BioAssay (NCI).
